Recorded IC50 for the following compounds
SYSTEM_UNDER_TEST: CXCR7 (Homo sapiens, UniProt P25106)
Sequence (P25106 whole entry): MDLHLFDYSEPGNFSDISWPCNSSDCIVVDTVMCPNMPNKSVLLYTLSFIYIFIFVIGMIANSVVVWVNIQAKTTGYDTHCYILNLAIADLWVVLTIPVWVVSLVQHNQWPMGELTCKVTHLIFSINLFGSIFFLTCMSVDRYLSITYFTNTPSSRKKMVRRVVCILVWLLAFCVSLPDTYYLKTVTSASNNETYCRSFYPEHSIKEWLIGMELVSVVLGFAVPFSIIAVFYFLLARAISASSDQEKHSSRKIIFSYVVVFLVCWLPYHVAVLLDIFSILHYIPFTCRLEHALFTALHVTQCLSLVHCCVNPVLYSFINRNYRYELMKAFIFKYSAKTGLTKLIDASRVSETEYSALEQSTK
METHOD_SUMMARY: CXCR7 β-arrestin recruitment assay in CHO-CXCR7 cells (ProLink/EA β-galactosidase complementation), induced by human SDF-1a
CONDITIONS_USED: assay buffer, SDF-1a at EC50 concentration

Here is how some compounds turned out for IC50.
- COMPOUND: "CC(C)(NC(=O)CC1(NC(=O)c2cc(-c3ccc(F)cc3F)on2)CN([C@H]2CC[C@](C)(O)CC2)C1)c1ccccn1 [Example 1.035]"
  SYSTEM_UNDER_TEST: "CXCR7 (Homo sapiens, UniProt P25106)"
  IC50: "5 to 100 nM"
- COMPOUND: "CC(C)(NC(=O)CC1(NC(=O)c2cc(-c3ccc(F)cc3F)on2)CN(C2(C)CCCCC2)C1)c1cccc(Cl)c1"
  SYSTEM_UNDER_TEST: "CXCR7 (Homo sapiens, UniProt P25106)"
  IC50: "< 5 nM"
- COMPOUND: "Cc1cc(C)nc(C(C)(C)NC(=O)CC2(NC(=O)c3cc(-c4ccc(F)cc4F)on3)CN(C3CCOCC3(C)C)C2)n1 (stereo not shown)"
  SYSTEM_UNDER_TEST: "CXCR7 (Homo sapiens, UniProt P25106)"
  IC50: "100 to 1000 nM"

For the record CC(C)(NC(=O)CC1(NC(=O)c2cc(-c3ccc(F)cc3)on2)CN([C@H]2CC[C@](C)(O)CC2)C1)c1ccccc1 , what value of IC50 is listed for CXCR7 (Homo sapiens, UniProt P25106)?
5 to 100 nM

For the record Cc1cc(C)nc(C(C)(C)NC(=O)CC2(NC(=O)c3noc(-c4ccc(F)cc4F)c3C)CN(C3CCCCC3)C2)n1 , what value of IC50 is listed for CXCR7 (Homo sapiens, UniProt P25106)?
1000 to 20000 nM
